targetOfAssay: T1, extracellular domain of human CD73 protein, C-terminus polyhistidine-tagged (human, UniProt P21589 27-547)
T1 construct: also the immunogen; also called CD73-ECD; human CD73-ECD
T1 sequence: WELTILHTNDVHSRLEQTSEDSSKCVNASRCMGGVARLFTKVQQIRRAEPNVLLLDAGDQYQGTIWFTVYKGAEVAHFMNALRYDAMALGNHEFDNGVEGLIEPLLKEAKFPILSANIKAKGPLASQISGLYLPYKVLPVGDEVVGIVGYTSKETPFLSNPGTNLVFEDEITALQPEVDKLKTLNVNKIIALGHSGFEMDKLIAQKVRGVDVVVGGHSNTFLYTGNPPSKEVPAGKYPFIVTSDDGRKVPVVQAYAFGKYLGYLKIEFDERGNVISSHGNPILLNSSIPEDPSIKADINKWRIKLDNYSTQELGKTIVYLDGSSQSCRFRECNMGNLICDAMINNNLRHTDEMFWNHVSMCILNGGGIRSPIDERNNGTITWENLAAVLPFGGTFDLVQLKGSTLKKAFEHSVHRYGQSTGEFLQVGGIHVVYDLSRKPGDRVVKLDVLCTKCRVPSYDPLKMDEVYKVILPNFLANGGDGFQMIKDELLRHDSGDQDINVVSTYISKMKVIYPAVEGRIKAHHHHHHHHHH
testDetails: ELISA on CD73-ECD, 100 µL supernatant of antibody expression, first of two readings; PBS 0.19, 0.18
measuredProperty: ELISA reading (not named on the sheet)

>>> testvalue("5-E11 derived antibody 5-E11AS (VHH, not shown: a dimerising Fc or GST) VHH: ALQLVESGGGLVQPGGSLRLSCEVSGFTLDYYNIGWFRQAPGKEREGVSCSSASGGSTYYADSVKGRFTISRDNAKNTVYLQMNSLKPEDTGVYYCAAYRGWHPSLDARVYDYWGQGTEVTVSS")
4.28
>>> testvalue("chimeric nanobody 5-E11 (Fc fusion, Human-alpaca chimeric antibody (VHH on hIgG1 Fc); Only the VHH is tied to the tested molecule; also called original antibody 5-E11) VHH: ALQLVESGGGLVQPGGSLRLSCEVSGFTLDYYNIGWFRQAPGKEREGVSCSSNSGGSTYYADSVKGRFTISRDNAKNTVYLQMNSLKPEDTGVYYCAAYRGWHPSLDARVYDYWGQGTEVTVSS")
4.33
>>> testvalue("5-E11 derived antibody 5-E11GS (VHH, not shown: a dimerising Fc or GST) VHH: ALQLVESGGGLVQPGGSLRLSCEVSGFTLDYYNIGWFRQAPGKEREGVSCSSGSGGSTYYADSVKGRFTISRDNAKNTVYLQMNSLKPEDTGVYYCAAYRGWHPSLDARVYDYWGQGTEVTVSS")
4.24
>>> testvalue("5-E11 derived antibody 5-E11QS (VHH, not shown: a dimerising Fc or GST) VHH: ALQLVESGGGLVQPGGSLRLSCEVSGFTLDYYNIGWFRQAPGKEREGVSCSSQSGGSTYYADSVKGRFTISRDNAKNTVYLQMNSLKPEDTGVYYCAAYRGWHPSLDARVYDYWGQGTEVTVSS")
4.32
